# Assay info: self-splicing fitness, log relative to wild type (ln ratio); higher = more splicing; Tetrahymena group I intron in knt gene, E. coli kanamycin selection, DiMSum; sequences stand for … in CUCUCU…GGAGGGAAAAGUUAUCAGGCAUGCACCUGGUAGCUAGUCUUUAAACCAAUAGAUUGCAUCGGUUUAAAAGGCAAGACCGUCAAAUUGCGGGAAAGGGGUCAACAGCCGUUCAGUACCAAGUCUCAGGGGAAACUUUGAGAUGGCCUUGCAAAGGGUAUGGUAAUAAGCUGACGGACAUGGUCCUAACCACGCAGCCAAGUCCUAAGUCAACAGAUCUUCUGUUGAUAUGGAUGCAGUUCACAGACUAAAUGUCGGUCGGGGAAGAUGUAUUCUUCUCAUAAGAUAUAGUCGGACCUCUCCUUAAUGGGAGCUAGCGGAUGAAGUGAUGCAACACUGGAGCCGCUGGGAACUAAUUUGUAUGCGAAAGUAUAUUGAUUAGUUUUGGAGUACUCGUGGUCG;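 also: selection with 25 µg/mL kanamycin versus none on LB agar overnight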
# Assay conditions: 37 °C
Consider the following sequences and their measured self-splicing fitness (ln) readings.
Metric name: self-splicing fitness (ln)

>  <Sequence content>
GCCGAGCAAUAUUACGCUAC

>  <Metric name>
self-splicing fitness (ln)

>  <Recorded measurement>
-4.08

$$$$
>  <Sequence content>
UUACAGCAAUAUUACGUUCU

>  <Metric name>
self-splicing fitness (ln)

>  <Recorded measurement>
-1.01

$$$$
>  <Sequence content>
GCUCAGCAAUAUUACGAUAA

>  <Metric name>
self-splicing fitness (ln)

>  <Recorded measurement>
-0.579

$$$$
>  <Sequence content>
UGUAAGCAAUAUUACGAUUG

>  <Metric name>
self-splicing fitness (ln)

>  <Recorded measurement>
-0.574

$$$$
>  <Sequence content>
GCCGAGCAAUAUUACGGUCA

>  <Metric name>
self-splicing fitness (ln)

>  <Recorded measurement>
-0.977

$$$$
>  <Sequence content>
GCUCAGCAAUAUUACGGUGU

>  <Metric name>
self-splicing fitness (ln)

>  <Recorded measurement>
0.0463

$$$$
>  <Sequence content>
GGACAGCAAUAUUACGCUGU

>  <Metric name>
self-splicing fitness (ln)

>  <Recorded measurement>
-2.96

$$$$
>  <Sequence content>
CAAGAGCAAUAUUACGUCGC

>  <Metric name>
self-splicing fitness (ln)

>  <Recorded measurement>
-2.38

$$$$
>  <Sequence content>
GUUAAGCAAUAUUACGGCCA

>  <Metric name>
self-splicing fitness (ln)

>  <Recorded measurement>
-0.359

$$$$
>  <Sequence content>
UCCUAGCAAUAUUACGCUUG

>  <Metric name>
self-splicing fitness (ln)

>  <Recorded measurement>
-2.46

$$$$
>  <Sequence content>
GGGCAGCAAUAUUACGUGGC

>  <Metric name>
self-splicing fitness (ln)

>  <Recorded measurement>
-2.21

$$$$
>  <Sequence content>
CGCUAGCAAUAUUACGAAUU

>  <Metric name>
self-splicing fitness (ln)

>  <Recorded measurement>
-2.58

$$$$
>  <Sequence content>
GAGCAGCAAUAUUACGUUGU

>  <Metric name>
self-splicing fitness (ln)

>  <Recorded measurement>
-2.16

$$$$
>  <Sequence content>
UACCAGCAAUAUUACGACCU

>  <Metric name>
self-splicing fitness (ln)

>  <Recorded measurement>
-1.57

$$$$
>  <Sequence content>
AACAAGCAAUAUUACGACAU

>  <Metric name>
self-splicing fitness (ln)

>  <Recorded measurement>
0.0604

$$$$
>  <Sequence content>
GGCGAGCAAUAUUACGCAAU

>  <Metric name>
self-splicing fitness (ln)

>  <Recorded measurement>
-0.788

$$$$
>  <Sequence content>
ACUUAGCAAUAUUACGCUAU

>  <Metric name>
self-splicing fitness (ln)

>  <Recorded measurement>
-2.09

$$$$
>  <Sequence content>
CGACAGCAAUAUUACGUAAC

>  <Metric name>
self-splicing fitness (ln)

>  <Recorded measurement>
-2.03

$$$$
>  <Sequence content>
UACUAGCAAUAUUACGGGGA

>  <Metric name>
self-splicing fitness (ln)

>  <Recorded measurement>
-0.992

$$$$
>  <Sequence content>
GGUUAGCAAUAUUACGCCUG

>  <Metric name>
self-splicing fitness (ln)

>  <Recorded measurement>
-2.7

$$$$
>  <Sequence content>
UACCAGCAAUAUUACGAACG

>  <Metric name>
self-splicing fitness (ln)

>  <Recorded measurement>
-0.562

$$$$
>  <Sequence content>
UGACAGCAAUAUUACGGGCU

>  <Metric name>
self-splicing fitness (ln)

>  <Recorded measurement>
-1.57

$$$$
>  <Sequence content>
GACGAGCAAUAUUACGGCCU

>  <Metric name>
self-splicing fitness (ln)

>  <Recorded measurement>
-1.12

$$$$
>  <Sequence content>
AGCCAGCAAUAUUACGACUU

>  <Metric name>
self-splicing fitness (ln)

>  <Recorded measurement>
-0.895

$$$$
>  <Sequence content>
UAUCAGCAAUAUUACGCAGA

>  <Metric name>
self-splicing fitness (ln)

>  <Recorded measurement>
-1.03

$$$$
>  <Sequence content>
UCAAAGCAAUAUUACGUUGU

>  <Metric name>
self-splicing fitness (ln)

>  <Recorded measurement>
-2.02

$$$$
>  <Sequence content>
CCACAGCAAUAUUACGUUAC

>  <Metric name>
self-splicing fitness (ln)

>  <Recorded measurement>
-2.17

$$$$
>  <Sequence content>
GUUCAGCAAUAUUACGUCAC

>  <Metric name>
self-splicing fitness (ln)

>  <Recorded measurement>
-1.27

$$$$
>  <Sequence content>
GAGCAGCAAUAUUACGGAAG

>  <Metric name>
self-splicing fitness (ln)

>  <Recorded measurement>
-3.24

$$$$
>  <Sequence content>
AGUCAGCAAUAUUACGAUAG

>  <Metric name>
self-splicing fitness (ln)

>  <Recorded measurement>
-2.32

$$$$
>  <Sequence content>
CCAUAGCAAUAUUACGUGUA

>  <Metric name>
self-splicing fitness (ln)

>  <Recorded measurement>
-2.71

$$$$
>  <Sequence content>
GGAUAGCAAUAUUACGUAAG

>  <Metric name>
self-splicing fitness (ln)

>  <Recorded measurement>
-0.386

$$$$
>  <Sequence content>
GUAAAGCAAUAUUACGAGCC

>  <Metric name>
self-splicing fitness (ln)

>  <Recorded measurement>
-2.56

$$$$
>  <Sequence content>
AUAUAGCAAUAUUACGAAUU

>  <Metric name>
self-splicing fitness (ln)

>  <Recorded measurement>
-0.909

$$$$
>  <Sequence content>
CUGAAGCAAUAUUACGCAUG

>  <Metric name>
self-splicing fitness (ln)

>  <Recorded measurement>
0.071

$$$$
>  <Sequence content>
CAAGAGCAAUAUUACGGGAA

>  <Metric name>
self-splicing fitness (ln)

>  <Recorded measurement>
-3.01

$$$$
>  <Sequence content>
UGCAAGCAAUAUUACGCCGG

>  <Metric name>
self-splicing fitness (ln)

>  <Recorded measurement>
-0.615

$$$$
>  <Sequence content>
UAGGAGCAAUAUUACGUGUG

>  <Metric name>
self-splicing fitness (ln)

>  <Recorded measurement>
-1.72

$$$$
>  <Sequence content>
GUCGAGCAAUAUUACGGCUA

>  <Metric name>
self-splicing fitness (ln)

>  <Recorded measurement>
-1.47

$$$$
>  <Sequence content>
CCGAAGCAAUAUUACGCCUU

>  <Metric name>
self-splicing fitness (ln)

>  <Recorded measurement>
-1.21

$$$$
>  <Sequence content>
CCUUAGCAAUAUUACGCCUG

>  <Metric name>
self-splicing fitness (ln)

>  <Recorded measurement>
-2.89

$$$$
>  <Sequence content>
CAUAAGCAAUAUUACGGGAA

>  <Metric name>
self-splicing fitness (ln)

>  <Recorded measurement>
-2.23

$$$$
>  <Sequence content>
GCAAAGCAAUAUUACGGUCA

>  <Metric name>
self-splicing fitness (ln)

>  <Recorded measurement>
-0.197

$$$$
>  <Sequence content>
GUCCAGCAAUAUUACGGCUG

>  <Metric name>
self-splicing fitness (ln)

>  <Recorded measurement>
-3.61

$$$$
>  <Sequence content>
CAUCAGCAAUAUUACGAAGA

>  <Metric name>
self-splicing fitness (ln)

>  <Recorded measurement>
-0.441

$$$$
>  <Sequence content>
UGCGAGCAAUAUUACGUUGC

>  <Metric name>
self-splicing fitness (ln)

>  <Recorded measurement>
-1.17

$$$$
>  <Sequence content>
GUCCAGCAAUAUUACGCUCC

>  <Metric name>
self-splicing fitness (ln)

>  <Recorded measurement>
-0.563

$$$$
>  <Sequence content>
UUCAAGCAAUAUUACGAAAU

>  <Metric name>
self-splicing fitness (ln)

>  <Recorded measurement>
-1.43

$$$$
>  <Sequence content>
AGAUAGCAAUAUUACGAGCA

>  <Metric name>
self-splicing fitness (ln)

>  <Recorded measurement>
-0.95

$$$$
>  <Sequence content>
GGCCAGCAAUAUUACGAAGA

>  <Metric name>
self-splicing fitness (ln)

>  <Recorded measurement>
-2.85

$$$$
>  <Sequence content>
CUACAGCAAUAUUACGGAGG

>  <Metric name>
self-splicing fitness (ln)

>  <Recorded measurement>
-1.33

$$$$
>  <Sequence content>
AGUCAGCAAUAUUACGAUGC

>  <Metric name>
self-splicing fitness (ln)

>  <Recorded measurement>
-0.00334

$$$$
>  <Sequence content>
UCCGAGCAAUAUUACGCCGC

>  <Metric name>
self-splicing fitness (ln)

>  <Recorded measurement>
-2.15

$$$$
>  <Sequence content>
AUCUAGCAAUAUUACGGUUU

>  <Metric name>
self-splicing fitness (ln)

>  <Recorded measurement>
-0.53

$$$$
>  <Sequence content>
GGAUAGCAAUAUUACGGGGC

>  <Metric name>
self-splicing fitness (ln)

>  <Recorded measurement>
-1.95

$$$$
>  <Sequence content>
AUUCAGCAAUAUUACGCGAU

>  <Metric name>
self-splicing fitness (ln)

>  <Recorded measurement>
-3.23

$$$$
>  <Sequence content>
ACGGAGCAAUAUUACGGAAU

>  <Metric name>
self-splicing fitness (ln)

>  <Recorded measurement>
-2.5

$$$$
>  <Sequence content>
CGGGAGCAAUAUUACGCGGA

>  <Metric name>
self-splicing fitness (ln)

>  <Recorded measurement>
-2.93

$$$$
>  <Sequence content>
CCGCAGCAAUAUUACGCAUC

>  <Metric name>
self-splicing fitness (ln)

>  <Recorded measurement>
-1.95

$$$$
>  <Sequence content>
UCUUAGCAAUAUUACGGUGU

>  <Metric name>
self-splicing fitness (ln)

>  <Recorded measurement>
-1.23

$$$$
>  <Sequence content>
UCUAAGCAAUAUUACGCAAC

>  <Metric name>
self-splicing fitness (ln)

>  <Recorded measurement>
-1.32

$$$$
>  <Sequence content>
CUCAAGCAAUAUUACGGAAU

>  <Metric name>
self-splicing fitness (ln)

>  <Recorded measurement>
-2.67

$$$$
>  <Sequence content>
CCACAGCAAUAUUACGGGUG

>  <Metric name>
self-splicing fitness (ln)

>  <Recorded measurement>
-0.716

$$$$
>  <Sequence content>
AUAUAGCAAUAUUACGUCGU

>  <Metric name>
self-splicing fitness (ln)

>  <Recorded measurement>
-0.541

$$$$
>  <Sequence content>
UUAUAGCAAUAUUACGUUGC

>  <Metric name>
self-splicing fitness (ln)

>  <Recorded measurement>
-3.07

$$$$
>  <Sequence content>
AUGCAGCAAUAUUACGCCCU

>  <Metric name>
self-splicing fitness (ln)

>  <Recorded measurement>
0.0709

$$$$
>  <Sequence content>
ACCCAGCAAUAUUACGAAAA

>  <Metric name>
self-splicing fitness (ln)

>  <Recorded measurement>
-1.83

$$$$
